Cited source: ChEMBL document CHEMBL1124676

- Test system: UV4
- MEASUREMENT NOTES: Inhibitory ativity to reduce cell density by 50% of repair deffective mutant UV-4 cells in 96-well cultures under aerobic conditions
- Format: functional, cell-based
- STUDY CONDITIONS: Cricetulus griseus
TEST READOUT: log10 of IC50 (log10 of the value in nM)
# log10 transformed; quantity=IC50; unit=nM

Input: Which log10 of IC50 is listed for `CN(C)CCCNc1c2ccccc2nc2cccc([N+](=O)[O-])c12` ?
Output: 0.30

Input: Which log10 of IC50 is listed for `CC(=O)OCCN(CCOC(C)=O)c1ccc([N+](=O)[O-])c2c(NCCCN(C)C)c3ccccc3nc12` ?
Output: 4.06

Input: Which log10 of IC50 is listed for `CN(C)CCCNc1c2ccccc2nc2c(F)ccc([N+](=O)[O-])c12` ?
Output: 1.08

Input: Which log10 of IC50 is listed for `CN(C)CCCNc1c2ccccc2nc2c(N(C)C)ccc([N+](=O)[O-])c12` ?
Output: 3.79

Input: Which log10 of IC50 is listed for `COc1ccc([N+](=O)[O-])c2c(NCCCN(C)C)c3ccccc3nc12` ?
Output: 1.80

Input: Which log10 of IC50 is listed for `COC(=O)c1ccc([N+](=O)[O-])c2c(NCCCN(C)C)c3ccccc3nc12` ?
Output: 3.29

Input: Which log10 of IC50 is listed for `Cc1ccc([N+](=O)[O-])c2c(NCCCN(C)C)c3ccccc3nc12` ?
Output: 0.90

Input: Which log10 of IC50 is listed for `CN(C)CCCNc1c2ccccc2nc2c(N(CCO)CCO)ccc([N+](=O)[O-])c12` ?
Output: 4.29

Input: Which log10 of IC50 is listed for `CN(C)CCCNc1c2ccccc2nc2c(Cl)ccc([N+](=O)[O-])c12` ?
Output: 0.52

====

- MEASUREMENT NOTES: Half life of extracellular bioactivity assessed by bioassay of culture supernatant against hypoxic UV-4 cells
- Format: ADME, cell-based, Cricetulus griseus, UV4
- STUDY CONDITIONS: chinese hamster, hypoxic UV-4 cell cultures (culture supernatant)
Provide the reported half-life of each item.
Only the number, expressed in h, is required.

Input: Which half-life is listed for `CN(C)CCCNc1c2ccccc2nc2c(Cl)ccc([N+](=O)[O-])c12` ?
Output: 0.68

Input: Which half-life is listed for `COC(=O)c1ccc([N+](=O)[O-])c2c(NCCCN(C)C)c3ccccc3nc12` ?
Output: 3.9

Input: Which half-life is listed for `COc1ccc([N+](=O)[O-])c2c(NCCCN(C)C)c3ccccc3nc12` ?
Output: 5.2

Input: Which half-life is listed for `CN(C)CCCNc1c2ccccc2nc2cccc([N+](=O)[O-])c12` ?
Output: 0.84

Input: Which half-life is listed for `CN(C)CCCNc1c2ccccc2nc2c(F)ccc([N+](=O)[O-])c12` ?
Output: 0.77

Input: Which half-life is listed for `Cc1ccc([N+](=O)[O-])c2c(NCCCN(C)C)c3ccccc3nc12` ?
Output: 0.99

Input: Which half-life is listed for `CC(=O)OCCN(CCOC(C)=O)c1ccc([N+](=O)[O-])c2c(NCCCN(C)C)c3ccccc3nc12` ?
Output: 8.4

Input: Which half-life is listed for `CN(C)CCCNc1c2ccccc2nc2c(N(C)C)ccc([N+](=O)[O-])c12` ?
Output: 2.3
